Reference source for all entries: ChEMBL document CHEMBL1126126

Assay: Water solubility was determined
Assay type: ADME
PROPERTY LABEL: solubility (µg/mL)

A. CCCOc1c(OCCCO)cc([C@@H]2CC[C@@H](c3cc(OC)c(OC)c(OC)c3)O2)cc1S(=O)(=O)CC(C)=O
B. CCCOc1c(OC)cc([C@@H]2CC[C@@H](c3cc(OC)c(OC)c(OC)c3)O2)cc1S(=O)(=O)CCO
Ask: Looking only at measured solubility, which entry is lower, A or B ? Indicate your choice by writing its label.
Reply: B

----------
Experiment: Water solubility at pH 7.4
Format: physicochemical
PROPERTY LABEL: solubility

The reported solubility of the compound CCCOc1c(OCCCOP(=O)([O-])O)cc([C@@H]2CC[C@@H](c3cc(OC)c(OC)c(OC)c3)O2)cc1S(=O)(=O)CC(C)=O.[K+] was > 30 mg/mL
